tested on: OVCAR-5; experiment: Cytotoxicity against human OVCAR5 cells assessed as cell growth at 10 uM; format: functional; conditions: Homo sapiens, OVCAR-5; read-out: Activity
attribute_measured: growth at 10 µM (%)
One number for each entry, in %.

FC(F)(F)c1cc(Nc2nccc(-c3ccc(-c4ccccc4)nc3)n2)cc(C(F)(F)F)c1 : 111

Below are some compounds; for each one, tell me its growth at 10 µM.
1. Cc1cc(-c2cccnc2)nc(NC(=O)c2cccc(C(F)(F)F)c2)n1
2. FC(F)(F)c1cc(Nc2nccc(-c3ccc(Nc4ccccc4)nc3)n2)cc(C(F)(F)F)c1
3. c1ccc(-c2ccc(-c3ccnc(Nc4ccc(N(c5ccccc5)c5ccccc5)cc4)n3)cn2)cc1
4. Cc1ccc(Nc2nc(C)cc(-c3cccnc3)n2)c(C)c1

Response:
95.7
97.3
106
106

Request: I would be grateful if you could share the reported growth at 10 µM for CC(=O)Nc1cccc(-c2ccc(-c3ccnc(NC(=O)Nc4cc(C(F)(F)F)cc(C(F)(F)F)c4)n3)cn2)c1.Cl .
Response: 93.5
